Below, each entry is listed with its recorded MIC.
- Tested on: Staphylococcus aureus
- experimental.protocol: Antibacterial activity against Staphylococcus aureus ATCC 25923 after 18 to 24 hrs by CLSI two fold serial dilution method
- Format: functional
Just the number please, in µM, no unit attached.

For reference, reported MIC for CCOc1c(OC)cc(/C=N/NC(N)=S)c2c1CN1CCc3cc4c(cc3C1C2)OCO4 (stereo unspecified) stands at 70

For reference, reported MIC for C=CCOc1c(OC)cc(/C=N/NC(N)=S)c2c1CN1CCc3cc4c(cc3C1C2)OCO4 (stereo unspecified) stands at 70

For reference, reported MIC for COc1cc(/C=N/Nc2nccs2)c2c(c1OCc1ccccc1Cl)CN1CCc3cc4c(cc3C1C2)OCO4 (stereo unspecified) stands at 110

For reference, reported MIC for CCCCCCCCCCOc1c(OC)cc(/C=N/Nc2nccs2)c2c1CN1CCc3cc4c(cc3C1C2)OCO4 (stereo unspecified) stands at 110

For reference, reported MIC for COc1cc(/C=N/NC(N)=S)c2c(c1OCc1ccc(F)cc1)CN1CCc3cc4c(cc3C1C2)OCO4 (stereo unspecified) stands at 120

For reference, reported MIC for CCOc1c(OC)cc(/C=N/Nc2nccs2)c2c1CN1CCc3cc4c(cc3C1C2)OCO4 (stereo unspecified) stands at 70

For reference, reported MIC for CCCCCCOc1c(OC)cc(/C=N/Nc2nccs2)c2c1CN1CCc3cc4c(cc3C1C2)OCO4 (stereo unspecified) stands at 30

For reference, reported MIC for CCCCCCCCCCOc1c(OC)cc(/C=N/NC(N)=S)c2c1CN1CCc3cc4c(cc3C1C2)OCO4 (stereo unspecified) stands at 30

For reference, reported MIC for CCCCOc1c(OC)cc(/C=N/Nc2nccs2)c2c1CN1CCc3cc4c(cc3C1C2)OCO4 (stereo unspecified) stands at 60

For reference, reported MIC for COc1cc(/C=N/Nc2nccs2)c2c(c1O)CN1CCc3cc4c(cc3C1C2)OCO4 (stereo unspecified) stands at 140

For reference, reported MIC for COc1cc(/C=N/Nc2nccs2)c2c(c1OCc1ccccc1)CN1CCc3cc4c(cc3C1C2)OCO4 (stereo unspecified) stands at 240

For reference, reported MIC for COc1cc(/C=N/NC(N)=S)c2c(c1OCc1ccc(Cl)c(Cl)c1)CN1CCc3cc4c(cc3C1C2)OCO4 (stereo unspecified) stands at 220

For reference, reported MIC for COc1cc(/C=N/NC(N)=S)c2c(c1O)CN1CCc3cc4c(cc3C1C2)OCO4 (stereo unspecified) stands at 150

For reference, reported MIC for CCCCCCCCCCCCOc1c(OC)cc(/C=N/Nc2nccs2)c2c1CN1CCc3cc4c(cc3C1C2)OCO4 (stereo unspecified) stands at 210

For reference, reported MIC for COc1cc(/C=N/Nc2nccs2)c2c(c1OCc1ccccc1F)CN1CCc3cc4c(cc3C1C2)OCO4 (stereo unspecified) stands at 60

For reference, reported MIC for COc1cc(/C=N/Nc2nccs2)c2c(c1OCCO)CN1CCc3cc4c(cc3C1C2)OCO4 (stereo unspecified) stands at 130

====

- System: Bacillus subtilis
- experimental.protocol: Antibacterial activity against Bacillus subtilis ATCC 21216 after 18 to 24 hrs by CLSI two fold serial dilution method
- Type: functional
readout.name: log10(MIC) (log10 of the value in µM)
Heads up: the numbers are on a log10 scale; they represent MIC in µM.

Example compounds with recorded log10(MIC):
> print(dat)
                                   compound  readout.name  numeric.result
1  CCCCCCCCCCCCOc1c(OC)cc(/C=N/Nc2nccs2)c2c1CN1CCc3cc4c(cc3C1C2)OCO4 (stereo unspecified)    log10(MIC)            1.48
2  COc1cc(/C=N/NC(N)=S)c2c(c1OCC#N)CN1CCc3cc4c(cc3C1C2)OCO4 (stereo unspecified)    log10(MIC)            2.74
3  COc1cc(/C=N/Nc2nccs2)c2c(c1OCC#N)CN1CCc3cc4c(cc3C1C2)OCO4 (stereo unspecified)    log10(MIC)            2.41
4  COc1cc(/C=N/Nc2nccs2)c2c(c1O)CN1CCc3cc4c(cc3C1C2)OCO4 (stereo unspecified)    log10(MIC)            2.15

Next up:
For reference, reported log10(MIC) for CCCCCCOc1c(OC)cc(/C=N/NC(N)=S)c2c1CN1CCc3cc4c(cc3C1C2)OCO4 (stereo unspecified) stands at 2.11
